Every entry's value here was drawn from paper PMC6354736.

# targetSystem: KDM5
# assayMethodText: KDM5 demethylase activity/inhibition assay
# experimentalContext: read-out: KDM5 IC50; whole-cell nuclear extraction
readout: pIC50
When answering, recall that pIC50 equals minus log10 of the concentration in mol/L, and write that number alone.

Fill in the blank: the reported pIC50 of Cc1ccc(-c2cn3cc(C)ccc3n2)cc1 is ____.
9.10

====

# targetSystem: KDM4
# assayMethodText: KDM4 demethylase activity/inhibition assay
# experimentalContext: read-out: KDM4 IC50; whole-cell nuclear extraction
readout: IC50 (nM)
Numeric only. Scale: nM

// query IC50 value for entry Cc1ccc(-c2cn3cc(C)ccc3n2)cc1
249
